# systemUnderTest: BRD4(BD1) (Homo sapiens (Human), UniProt O60885)
# testDetails: In vitro bromodomain inhibition assay (AlphaLISA)
# assayConditions: His-tagged BRD4 BD1 200 nM, biotinylated H4-tetraacetyl peptide 200 nM
# Procedure: a) In Vitro Bromodomain Inhibition Assay To measure activity of bromodomain inhibitors, a His-epitope tagged BRD4 BD149-170 is purchased from BPS Bioscience. BRD4 binding and inhibition is assessed by monitoring the engagement of biotinylated H4-tetraacetyl peptide (H4K5/8/12/16; AnaSpec #64989-025) with the target using the AlphaLISA technology (Perkin-Elmer). […]
pIC50: −log10 of the molar value.
Listed here are compounds together with their documented pIC50.
reportedProperty: pIC50

smilesstr=Cc1cc(-c2cc3c(c(Nc4cccnc4)c2)NC(=O)CC3)cn(C)c1=O systemundertest="BRD4(BD1) (Homo sapiens (Human), UniProt O60885)" measurednumber=6.46
smilesstr=Cc1cc(-c2cc3c(c(Cc4ccccc4)c2)NC(=O)CC3)cn(C)c1=O systemundertest="BRD4(BD1) (Homo sapiens (Human), UniProt O60885)" measurednumber=6.39
smilesstr=Cc1cc(-c2cc3c(cc2Cc2ccccc2)N(C)C(=O)CC3)cn(C)c1=O systemundertest="BRD4(BD1) (Homo sapiens (Human), UniProt O60885)" measurednumber=6.32
smilesstr=Cc1cc(-c2cc3c(c(OCc4ccccc4)c2)NC(=O)CC3)cn(C)c1=O systemundertest="BRD4(BD1) (Homo sapiens (Human), UniProt O60885)" measurednumber=6.74
smilesstr=Cc1cc(-c2cc3c(c(NC4CCOCC4)c2)NC(=O)CC3)cn(C)c1=O systemundertest="BRD4(BD1) (Homo sapiens (Human), UniProt O60885)" measurednumber=6.38
smilesstr=Cc1cc(-c2cc3c(c(CN4CCCCC4)c2)NC(=O)CC3)cn(C)c1=O systemundertest="BRD4(BD1) (Homo sapiens (Human), UniProt O60885)" measurednumber=5.89
smilesstr=Cc1cc(-c2ccc3c(c2Cc2ccccc2)CCC(=O)N3)cn(C)c1=O systemundertest="BRD4(BD1) (Homo sapiens (Human), UniProt O60885)" measurednumber=6.85
smilesstr=Cc1cc(-c2cc3c(c(NCc4ccccn4)c2)NC(=O)CC3)cn(C)c1=O systemundertest="BRD4(BD1) (Homo sapiens (Human), UniProt O60885)" measurednumber=6.96
smilesstr=Cc1cc(-c2ccc3c(c2Cc2ccccc2)CCC(=O)N3C)cn(C)c1=O systemundertest="BRD4(BD1) (Homo sapiens (Human), UniProt O60885)" measurednumber=6.57
smilesstr=Cc1cc(-c2cc3c(c(Cc4ccccc4)c2)N(C)C(=O)CC3)cn(C)c1=O systemundertest="BRD4(BD1) (Homo sapiens (Human), UniProt O60885)" measurednumber=6.25
smilesstr=Cc1cc(-c2cc3c(cc2Cc2ccccc2)NC(=O)CC3)cn(C)c1=O systemundertest="BRD4(BD1) (Homo sapiens (Human), UniProt O60885)" measurednumber=6.55
smilesstr=Cc1cc(-c2cc3c(c(NC4CCCCC4)c2)NC(=O)CC3)cn(C)c1=O systemundertest="BRD4(BD1) (Homo sapiens (Human), UniProt O60885)" measurednumber=6.09
smilesstr=Cc1cc(-c2cc3c(c(CNC4CCCC4)c2)NC(=O)CC3)cn(C)c1=O systemundertest="BRD4(BD1) (Homo sapiens (Human), UniProt O60885)" measurednumber=6.15
smilesstr=Cc1cc(-c2cc3c(c(NCc4ccccc4)c2)NC(=O)CC3)cn(C)c1=O systemundertest="BRD4(BD1) (Homo sapiens (Human), UniProt O60885)" measurednumber=6.55
smilesstr=Cc1cc(-c2cc3c(c(Nc4ccccc4)c2)NC(=O)CC3)cn(C)c1=O systemundertest="BRD4(BD1) (Homo sapiens (Human), UniProt O60885)" measurednumber=6.29
smilesstr=Cc1cc(-c2cc3c(c(N(C)c4ccccc4)c2)NC(=O)CC3)cn(C)c1=O systemundertest="BRD4(BD1) (Homo sapiens (Human), UniProt O60885)" measurednumber=6.46

---

# Tested on: human C-Myc transcription in MV-4-11 cells
# testDetails: Transcription of human C-Myc in human leukemic MV-4-11 cells (QuantiGene 2.0)
# Assay type: cell-based
# assayConditions: inhibition of C-Myc mRNA, 4 hours treatment
# Text: b) Transcription of Human C-Myc in Human Leukemic MV-4-11 Cells: The effect of compounds on transcription of human C-Myc gene is monitored in human B-myelomonocytic leukemia cell line MV-4-11 (from American Type Culture Collection (ATCC), Manassas, Va., USA) using QuantiGene 2.0 assay kit (Affymetrix, Santa Clara, Calif., USA). […]
pIC50: −log10 of the molar value.
Rule: Yes for pIC50 not less than 6, No for anything less.

molecule="Cc1cc(-c2cc3c(c(OC(C)c4cccnc4)c2)NC(=O)CC3)cn(C)c1=O (single isomer, unassigned) [Compound 92b]" group=Yes
molecule="Cc1cc(-c2cc3c(c(NC(C)c4ccccn4)c2)NC(=O)CC3)cn(C)c1=O (stereo not drawn)" group=Yes
molecule="Cc1cc(-c2cc3c(c(COC4CCCOC4)c2)NC(=O)CC3)cn(C)c1=O (stereo not drawn) [Compound 48b]" group=No
molecule="Cc1cc(-c2cc3c(c(OC(C)c4cccnc4)c2)NC(=O)CC3)cn(C)c1=O (single isomer, unassigned) [Compound 92a]" group=Yes
